- STUDY SYSTEM: T1, murine heparanase (Mus musculus, UniProt Q6YGZ1)
- T1 construct: made in house; host or cells: Hek293 cells (conditioned medium), inferred for the ELISA
- T1 sequence (Q6YGZ1 28-535): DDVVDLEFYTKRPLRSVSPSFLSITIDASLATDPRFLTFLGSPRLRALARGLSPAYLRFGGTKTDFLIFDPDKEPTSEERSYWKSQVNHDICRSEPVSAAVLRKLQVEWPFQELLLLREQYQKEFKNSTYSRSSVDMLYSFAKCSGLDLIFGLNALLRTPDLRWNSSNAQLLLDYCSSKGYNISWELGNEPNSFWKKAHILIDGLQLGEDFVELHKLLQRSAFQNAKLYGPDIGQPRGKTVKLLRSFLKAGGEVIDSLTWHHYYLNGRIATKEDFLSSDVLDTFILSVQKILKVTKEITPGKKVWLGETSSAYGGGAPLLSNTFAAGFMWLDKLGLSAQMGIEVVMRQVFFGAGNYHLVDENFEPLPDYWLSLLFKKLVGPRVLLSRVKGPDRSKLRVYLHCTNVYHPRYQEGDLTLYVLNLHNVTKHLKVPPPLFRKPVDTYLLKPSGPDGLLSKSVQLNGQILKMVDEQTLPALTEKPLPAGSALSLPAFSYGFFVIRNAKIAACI
- PROTOCOL: Cross species capture ELISA, murine heparanase
- Assay type: binding
- TEST PARAMETERS: min 0.06, max 0.9 OD units
MEASURED ENDPOINT: Binding to heparanase Mouse (OD units)

# MOLECULE, VALUE REPORTED
measured = [
    ("15A1.2: fully human anti-heparanase monoclonal antibody, G2κ; VH SEQ ID NO 6, VL SEQ ID NO 8; ATCC PTA-9491 (antibody, listed as Homo Sapiens, V domains shown, fully human anti-heparanase monoclonal antibody, G2κ; ATCC PTA-9491) VH: QVQLVQSGAEVKKPGASVKVSCKVSGYTLTELSMHWVRQAPGKGLEWMGGFDPEDGETIFAQKFQGRVTMTEDTSTDTAYMELSSLRSEDTAVYYCATGLRFLEWFLWGWDVWGQGTTVTVSS VL: DIQMTQSPSSVSASVGDRVTITCRASQGISNWLAWYQQTPGKAPQLLIYGASSLQSGVPSRFSGSGSGTDFTLTISSLQPEDFATYYCQQADSFPPTFGQGTKVEIK", 0.14),
]
